The values you see were collected from patent US9676766B2.

- targetUnderTest: human kinase Mps-1 (Homo sapiens)
- Construct: N-terminally GST-tagged human full length recombinant Mps-1 kinase
- Sequence (P33981 whole entry): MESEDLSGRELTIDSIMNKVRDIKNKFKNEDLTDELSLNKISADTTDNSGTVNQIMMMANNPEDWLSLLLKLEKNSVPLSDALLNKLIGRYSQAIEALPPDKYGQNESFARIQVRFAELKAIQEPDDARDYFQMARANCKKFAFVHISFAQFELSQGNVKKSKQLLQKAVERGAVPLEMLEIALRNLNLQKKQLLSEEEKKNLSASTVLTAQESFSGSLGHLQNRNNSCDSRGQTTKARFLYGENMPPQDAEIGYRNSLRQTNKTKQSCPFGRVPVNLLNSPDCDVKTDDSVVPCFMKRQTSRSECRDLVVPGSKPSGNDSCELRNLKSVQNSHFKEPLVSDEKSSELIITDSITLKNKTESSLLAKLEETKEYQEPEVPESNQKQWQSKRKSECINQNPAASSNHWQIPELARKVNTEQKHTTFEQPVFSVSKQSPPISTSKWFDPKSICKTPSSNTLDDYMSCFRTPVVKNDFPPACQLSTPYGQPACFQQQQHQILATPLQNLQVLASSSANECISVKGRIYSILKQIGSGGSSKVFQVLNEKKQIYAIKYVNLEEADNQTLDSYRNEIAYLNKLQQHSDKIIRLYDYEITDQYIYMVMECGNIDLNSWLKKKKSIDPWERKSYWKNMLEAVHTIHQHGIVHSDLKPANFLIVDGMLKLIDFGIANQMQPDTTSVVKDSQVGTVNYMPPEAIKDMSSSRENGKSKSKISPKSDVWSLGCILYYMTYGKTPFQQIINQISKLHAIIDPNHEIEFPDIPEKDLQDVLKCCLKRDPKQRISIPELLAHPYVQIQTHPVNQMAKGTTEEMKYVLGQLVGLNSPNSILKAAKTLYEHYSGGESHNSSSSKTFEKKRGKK
- protocolText: Mps-1 Kinase Assay (TR-FRET)
- cond: N-terminally GST-tagged human full length recombinant Mps-1; 10 μM ATP; 1 μM biotinylated peptide substrate; 60 min at 22° C.; read-out: MPS1 Inhibition, IC50 in M
attributeMeasured: pIC50
Numbers only, as −log10 of the molar value.

Some entries whose results are on file:
molecule: CO[C@H](C(=O)Nc1ccc(-c2ccc3nc(Nc4ccccc4C#N)nn3c2)cc1)c1ccccc1 (stereo in doubt)
attributeMeasured: pIC50
testResult: 8.47
//
molecule: COc1ccccc1Nc1nc2ccc(-c3cccc(NC(=O)N4CCOCC4)c3)cn2n1
attributeMeasured: pIC50
testResult: 7.00

// each listed molecule needs a value for pIC50
1. O=C(Nc1ccc(-c2ccc3nc(Nc4ccccc4C(F)(F)F)nn3c2)cc1)C1CC1
2. COc1ccccc1Nc1nc2ccc(-c3cccc(NC(=O)Nc4ccccc4)c3)cn2n1
3. COc1ccccc1Nc1nc2ccc(-c3cccc(NS(=O)(=O)CC4CC4)c3)cn2n1
4. COc1ccccc1Nc1nc2ccc(-c3cccc(NC(=O)Nc4ccncc4)c3)cn2n1
5. COc1ccccc1Nc1nc2ccc(-c3cccc(NC(=O)NCCN4CCOCC4)c3)cn2n1
6. COc1ccccc1Nc1nc2ccc(-c3cccc(NC(=O)C4CC4)c3)cn2n1
7. O=C(Cc1cccnc1)Nc1ccc(-c2ccc3nc(Nc4ccccc4C(F)(F)F)nn3c2)cc1

1. 6.74
2. 6.36
3. 7.18
4. 6.18
5. 6.33
6. 7.23
7. 7.00

// each listed molecule needs a value for pIC50
1. CN1CCN(C(=O)c2cccc(-c3ccc4nc(Nc5ccccc5C#N)nn4c3)c2)CC1
2. COc1ccccc1Nc1nc2ccc(-c3cccc(NC(=O)Nc4cccnc4)c3)cn2n1

1: 7.23; 2: 6.57

Determine reported pIC50 for `O=C(CC1CC1)Nc1ccc(-c2ccc3nc(Nc4ccccc4C(F)(F)F)nn3c2)cc1` ; test system: human kinase Mps-1 (Homo sapiens).
7.09
